test: NCI Yeast Anticancer Drug Screen. Data for the rad50 strain (AID 155);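 further: 0% = growth of vehicle-only cultures of the same strain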; settings: S. cerevisiae rad50 strain growth inhibition; at 50.0 µM; hits give high values
This is part of a sample that, as a whole, favours compounds with a hit. Of some 79,000 tested, about 15% had one in any assay. Calls of active or inactive are those of the source. No stated cut-off is given here; in the data, active means growth inhibition above about 70%; inactive means the rest.
Each entry below lists one item and its recorded growth inhibition value.

A selection of reference data follows.
[
  {
    "compound": "CCCCI(O)OS(=O)(=O)c1ccc(C)cc1",
    "growth inhibition": "5.65% (inactive)"
  },
  {
    "compound": "OCCCOc1ccc2ccccc2c1",
    "growth inhibition": "21.4% (inactive)"
  },
  {
    "compound": "CCOC(=O)C(NC(=O)C(CCCCNP(=O)(OCC)OCC)NC(=O)C(C)NC(C)=O)C(C)C (configuration not stated)",
    "growth inhibition": "-10.7% (inactive)"
  }
]

Noted for O=Cc1ccc(O)c(C(=O)O)c1 : its growth inhibition reads 8.6% (inactive)

Noted for c1ccc2c(c1)CNNC2 : its growth inhibition reads 11.3% (inactive)

Noted for S=C(Nc1ccc2ccccc2c1)Nc1ccc2ccccc2c1 : its growth inhibition reads 22% (inactive)

Noted for O=C(c1ccccc1)n1c2ccccc2c2ccccc21 : its growth inhibition reads 9.55% (inactive)
